Source of measurements: paper PMC10243363

# measurement target: MOR (Mus musculus)
# Sequence (P42866 whole entry): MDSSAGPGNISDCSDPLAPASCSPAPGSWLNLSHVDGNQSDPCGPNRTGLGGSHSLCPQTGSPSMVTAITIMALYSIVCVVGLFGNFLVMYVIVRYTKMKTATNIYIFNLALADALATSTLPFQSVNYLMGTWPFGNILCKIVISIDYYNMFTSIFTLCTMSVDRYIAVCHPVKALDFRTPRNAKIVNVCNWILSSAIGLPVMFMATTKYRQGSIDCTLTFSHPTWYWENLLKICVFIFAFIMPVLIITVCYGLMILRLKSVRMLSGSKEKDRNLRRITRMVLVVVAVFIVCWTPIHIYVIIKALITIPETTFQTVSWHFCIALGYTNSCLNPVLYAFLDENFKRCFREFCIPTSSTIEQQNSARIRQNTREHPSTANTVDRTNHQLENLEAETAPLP
# protocol notes: [35S]-GTPγS binding assay, mMOR-CHO membrane
# Format: biochemical
# condition label: %Emax = 100 defined using Emax of 3 μM DAMGO; mean ± SEM
value kind: MOR %Emax
Could you kindly put the unit after your number?

| smiles string | MOR %Emax |
| --- | --- |
| Cl.O=C(/C=C/c1ccoc1)N[C@@H]1CC[C@@]2(O)[C@H]3Cc4cccc5c4[C@@]2(CCN3CC2CC2)[C@H]1O5 | 27.7 ± 1.1% |
| Cl.O=C(/C=C/c1ccoc1)N[C@H]1CC[C@@]2(O)[C@H]3Cc4ccc(O)c5c4[C@@]2(CCN3CC2CC2)[C@H]1O5 | 25.9 ± 1.0% |
| Cl.O=C(/C=C/c1ccoc1)N[C@@H]1CC[C@@]2(O)[C@H]3Cc4ccc(O)c5c4[C@@]2(CCN3CC2CC2)[C@H]1O5 | 40.8 ± 2.2% |
| CN(C(=O)/C=C/c1ccoc1)[C@H]1CC[C@@]2(O)[C@H]3Cc4cccc5c4[C@@]2(CCN3CC2CC2)[C@H]1O5.Cl | 55.8 ± 2.9% |
| CN(C(=O)/C=C/c1ccoc1)[C@@H]1CC[C@@]2(O)[C@H]3Cc4cccc5c4[C@@]2(CCN3CC2CC2)[C@H]1O5.Cl | 17.5 ± 4.4% |

Now look at this one.
Data request, read-out MOR %Emax, for Cl.O=C(/C=C/c1ccoc1)N[C@H]1CC[C@@]2(O)[C@H]3Cc4cccc5c4[C@@]2(CCN3CC2CC2)[C@H]1O5
22.8 ± 2.1%
